So I've got a bunch of binders here, and I need their Kd values.
Biological target: T1, Recombinant human EPOR ectodomain-Fc (human, UniProt P19235 25-250)
T1 construct: erythropoietin receptor (EPOR), human, ectodomain; Captured on the chip with a human antibody capture kit, by its Fc; also called EPOR-Fc; rhEPOR ectodomain-Fc; source: bought: R&D Systems
T1 sequence (looked up): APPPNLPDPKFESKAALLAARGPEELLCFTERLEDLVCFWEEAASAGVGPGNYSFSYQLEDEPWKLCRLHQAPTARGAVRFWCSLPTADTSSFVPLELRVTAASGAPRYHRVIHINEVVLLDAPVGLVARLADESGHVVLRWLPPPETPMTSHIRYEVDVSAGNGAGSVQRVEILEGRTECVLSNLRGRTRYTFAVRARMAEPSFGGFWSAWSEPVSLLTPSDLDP
Experiment: SPR; Biacore T200; receptor ectodomain-Fc immobilised to around 1000 RU on CM5 chip by human antibody capture kit; peptides injected in five concentrations at 30 uL/min, single-cycle kinetics; HBS-EP+ buffer with 0.1% DMSO; 1:1 binding model; three runs (N 1-3) and their average
Positions of bridges follow the written chain, without caps; N, C: chain ends. No end group written: not given here.

Recorded Kd (binder GGLYACHMGPMTWVCQPLRG (disulfide 6-15, also called EMP35 (Monomer); monomeric EMP35; source: synthetic peptide (GenScript Japan)) [EMP35] ): < 0.0887 nM

Recorded Kd (binder EMP-PA8 (designed binder, disulfide 9-18, 37-46 (inferred), Expressed with the CspB signal peptide of C. glutamicum ATCC13869; also called EMP-PA8 (STaMPtide); EPO mimetic STaMPtide; source: C. glutamicum YPS010, secreted into the supernatant, purified (RP-HPLC)) AETGGLYACHMGPMTWVCQPLRGAAPAAPAPGGLYACHMGPMTWVCQPLRG ): < 0.0257 nM

Recorded Kd (binder EMP-PA22 (designed binder, disulfide 9-18, 51-60 (inferred), Expressed with the CspB signal peptide of C. glutamicum ATCC13869; also called EMP-PA22 (STaMPtide); EPO mimetic STaMPtide; source: C. glutamicum YPS010, secreted into the supernatant, purified (RP-HPLC)) AETGGLYACHMGPMTWVCQPLRGAAPAAPAPAAPAAPAPAAPAAPGGLYACHMGPMTWVCQPLRG ): < 0.0104 nM

Every entry's value here was drawn from paper PMC8760323.
